Target: hERG (relative to RET) (Homo sapiens, UniProt Q12809)
Construct: purchased GenScript
Sequence (Q12809 whole entry): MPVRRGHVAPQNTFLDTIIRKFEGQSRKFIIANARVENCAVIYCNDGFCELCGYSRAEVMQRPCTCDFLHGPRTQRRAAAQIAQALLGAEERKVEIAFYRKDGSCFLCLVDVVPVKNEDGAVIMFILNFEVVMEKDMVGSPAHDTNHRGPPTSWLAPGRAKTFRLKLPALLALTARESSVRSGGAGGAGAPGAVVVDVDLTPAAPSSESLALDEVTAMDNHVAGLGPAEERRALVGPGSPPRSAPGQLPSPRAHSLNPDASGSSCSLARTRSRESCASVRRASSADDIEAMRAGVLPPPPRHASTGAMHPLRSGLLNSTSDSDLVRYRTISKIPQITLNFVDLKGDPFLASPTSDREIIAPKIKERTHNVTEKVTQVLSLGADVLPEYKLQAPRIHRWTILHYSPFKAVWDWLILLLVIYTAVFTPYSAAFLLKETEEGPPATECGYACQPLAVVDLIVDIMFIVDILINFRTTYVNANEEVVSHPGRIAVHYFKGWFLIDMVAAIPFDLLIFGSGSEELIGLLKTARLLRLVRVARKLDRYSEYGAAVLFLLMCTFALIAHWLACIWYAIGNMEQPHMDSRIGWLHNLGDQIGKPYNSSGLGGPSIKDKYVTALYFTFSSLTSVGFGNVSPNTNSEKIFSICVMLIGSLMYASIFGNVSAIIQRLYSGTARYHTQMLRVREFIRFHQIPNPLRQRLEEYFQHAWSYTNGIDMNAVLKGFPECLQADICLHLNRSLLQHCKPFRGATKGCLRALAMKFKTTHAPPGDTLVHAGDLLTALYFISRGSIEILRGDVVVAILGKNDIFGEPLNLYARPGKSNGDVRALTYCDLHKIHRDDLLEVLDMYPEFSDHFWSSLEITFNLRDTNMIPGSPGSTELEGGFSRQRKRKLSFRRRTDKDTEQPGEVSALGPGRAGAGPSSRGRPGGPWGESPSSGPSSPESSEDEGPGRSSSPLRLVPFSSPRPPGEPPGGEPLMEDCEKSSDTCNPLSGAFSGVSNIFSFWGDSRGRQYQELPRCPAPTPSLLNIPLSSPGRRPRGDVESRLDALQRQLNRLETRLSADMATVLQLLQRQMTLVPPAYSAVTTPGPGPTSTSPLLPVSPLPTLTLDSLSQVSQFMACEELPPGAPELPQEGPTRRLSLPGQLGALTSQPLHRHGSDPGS
Assay: patch clamp hERG assay
Type: cell-based
Conditions: human; read-out: selectivity for RET over hERG
Measured Endpoint: selectivity ratio

[ask] Item Cn1cc(-c2ccc3c(c2)ncn3-c2ccc(CC(=O)Nc3cc(C(C)(C)C)on3)cc2)cn1 [Pz-1] has what recorded selectivity ratio?
[reply] 10000
